experiment: Further stability studies: aqueous solutions stored 60 days at room temperature and/or 40° C. (HPLC-MS)
Assay type: physicochemical
conditions: aqueous solution 1.2 mg/mL, room temperature, 1d, 1n with Na2HPO3, 1q, 4f, 4g with DMSO and (2-hydroxypropyl)-β-cyclodextrin
observation-type: % Area by HPLC (60 days) (% Area)
Express the result in % Area but write the number alone.

Prompt line: Fill in: % Area by HPLC (60 days) of CC(C)C[C@H](COP(=O)(O)O)Nc1nc(SC(C)c2ccccc2F)nc2nc(N)sc12 (some centres unmarked) [Example 1b] is ___
Response line: 100

Prompt line: What value of measured % Area by HPLC (60 days) is listed for CC(C)C[C@H](COP(=O)(O)O)Nc1nc(SC(C)c2ccc(Cl)cn2)nc2nc(N)sc12 (some centres unmarked) [Example 1d] ?
Response line: 98.0

Prompt line: Could you share which % Area by HPLC (60 days) value was measured for CC(C)C[C@H](CO)Nc1nc(S[C@@H](C)c2ccc(Cl)cn2)nc2c1sc(=O)n2COP(=O)(O)O [Example 2h] ?
Response line: 92.3

Prompt line: Return reported % Area by HPLC (60 days); argument: CC(C)C[C@H](COP(=O)(O)O)Nc1nc(S[C@@H](C)c2ccc(Cl)cn2)nc2[nH]c(=O)sc12 [Example 3]
Response line: 99.6

Prompt line: Field request: % Area by HPLC (60 days) | item: CC(C)C[C@H](COP(=O)(O)OC(C)C)Nc1nc(S[C@@H](C)c2ccccc2)nc2nc(N)sc12 [Example 1n]
Response line: 98.2
